Values compiled from patent US11795196B2.

System: isolated rat hearts
Assay remarks: Ischemia-reperfusion injury, Langendorff isolated heart preparation
Condition context: 30 min LAD occlusion + 120 min reperfusion, compound 1 μM in perfusion solution, only white necrotic tissue, mean
Decide using White Necrotic Area, % of area at risk alone. Strictly below 20%: true (1). Equal to or above 20%: false (0).

Example cases with answers are listed next.
Cc1cc(O)cc(C)c1C[C@H](NC(=O)[C@H](N)CCNC(=N)N)C(=O)N[C@@H](Cc1c[nH]cn1)c1nc(CC23CC4CC(CC(C4)C2)C3)no1; true (1)
Cc1cc(O)cc(C)c1C[C@H](NC(=O)[C@H](N)CCCn1ccnc1N)C(=O)N[C@@H](CCCCN)c1nc(CC2CCCCC2)no1; true (1)
Cc1cc(O)cc(C)c1C[C@H](NC(=O)[C@@H](CCN)NC(=N)N)C(=O)N[C@@H](CCCN)c1nc(Cc2ccccc2)no1; false (0)
Cc1cc(O)cc(C)c1C[C@H](NC(=O)[C@H](N)CCCNC(=N)N)C(=O)N[C@@H](CCCCN)c1nc(C23CC4CC(CC(C4)C2)C3)no1; true (1)
Cc1cc(O)cc(C)c1C[C@H](NC(=O)[C@H](N)CCCNC(=N)N)C(=O)N[C@@H](CCCCN)c1nc(Cc2ccccc2)no1; false (0)

Read the next record carefully.
IN: Quick check: does Cc1cc(O)cc(C)c1C[C@H](NC(=O)[C@H](N)CCCNC(=N)N)C(=O)N[C@@H](Cc1c[nH]cn1)c1nc(CCc2ccccc2)no1 have White Necrotic Area, % of area at risk under 20%?
OUT: false (0)
